Target: Pancreatic triacylglycerol lipase (Sus scrofa) (UniProt P00591)
Sequence (P00591 whole entry): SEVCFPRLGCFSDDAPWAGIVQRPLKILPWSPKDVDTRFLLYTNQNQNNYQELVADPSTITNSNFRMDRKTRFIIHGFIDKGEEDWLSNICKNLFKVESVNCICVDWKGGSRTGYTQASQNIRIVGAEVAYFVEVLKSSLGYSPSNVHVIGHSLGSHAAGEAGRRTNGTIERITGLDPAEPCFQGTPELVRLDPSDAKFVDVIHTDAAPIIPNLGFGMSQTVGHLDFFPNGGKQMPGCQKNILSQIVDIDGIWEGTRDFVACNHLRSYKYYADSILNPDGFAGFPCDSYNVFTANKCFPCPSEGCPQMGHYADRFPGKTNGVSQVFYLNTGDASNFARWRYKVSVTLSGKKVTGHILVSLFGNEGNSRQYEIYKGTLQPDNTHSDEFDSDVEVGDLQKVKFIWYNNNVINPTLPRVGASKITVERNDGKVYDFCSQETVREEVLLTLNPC
Experiment: Inhibition of PPL after 30 mins in presence of NaTDC
Each entry below lists one item and its recorded XI50 value.
Quick note: give the figure in molar excess, leave out the unit.

Use the examples below as a reference point.
CCCCCCCCCCC[C@@H](C[C@@H]1OC(=O)[C@H]1CCCCCC)OC(=O)[C@H](CC(C)C)NC=O	2.76
COc1nn(-c2cccc(Oc3ccccc3)c2)c(=O)o1	26.5

Now take the following molecule into account.
Query: Look up and report measured XI50 for this entry: COc1nn(-c2ccc(Oc3ccccc3)cc2)c(=O)o1
Reply: 57.6

* * *

Target: Pancreatic lipase-related protein 2 (Homo sapiens) (UniProt P54317)
Sequence (P54317 whole entry): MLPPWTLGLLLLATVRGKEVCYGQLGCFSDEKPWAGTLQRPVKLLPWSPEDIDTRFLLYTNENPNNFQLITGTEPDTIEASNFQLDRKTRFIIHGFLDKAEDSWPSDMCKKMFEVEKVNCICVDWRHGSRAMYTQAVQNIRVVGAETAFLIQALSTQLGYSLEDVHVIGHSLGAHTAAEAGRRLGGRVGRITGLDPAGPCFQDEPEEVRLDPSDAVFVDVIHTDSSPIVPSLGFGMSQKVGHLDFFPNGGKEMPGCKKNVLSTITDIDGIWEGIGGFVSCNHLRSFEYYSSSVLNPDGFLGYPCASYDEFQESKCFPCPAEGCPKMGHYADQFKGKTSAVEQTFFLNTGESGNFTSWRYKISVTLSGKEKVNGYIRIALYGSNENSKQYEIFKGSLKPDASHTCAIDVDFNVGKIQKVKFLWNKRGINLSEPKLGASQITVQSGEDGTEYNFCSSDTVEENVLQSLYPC
Test: Inhibition of recombinant HPLRP2 expressed in Pichia pastoris at 2 molar excess after 30 mins in presence of NaTDC
measured_attribute: inhibition (%)
A number alone suffices; assume %.

CCCCCCCCCCC[C@@H](C[C@@H]1OC(=O)[C@H]1CCCCCC)OC(=O)[C@H](CC(C)C)NC=O	83.6
COc1nn(-c2ccc(Oc3ccccc3)cc2)c(=O)o1	66
COc1nn(-c2ccccc2)c(=O)o1	49.9

Consider the record given below.
Query: Specify inhibition for COc1nn(-c2cccc(Oc3ccccc3)c2)c(=O)o1 , system Pancreatic lipase-related protein 2 (Homo sapiens) (UniProt P54317).
Reply: 63.7
